Reference source: patent US20210214354A1

Experiment: in vivo
Conditions: both, Sprague-Dawley (SD), rat, iv, 0.08 mg/kg
METRIC NAME: AUC(0-inf) (ng·h/mL)
Just the number in ng·h/mL, nothing appended.

Request: Returns the measured AUC(0-inf) for the input compound. Input: CCOCc1nc2c(N)nc3ccccc3c2n1CC(C)(C)O
Response: 66.2

* * *

Test: TLR7/8 agonist PK study in SD rats (i.v.)
Details: both, Sprague-Dawley (SD), rat, plasma, iv, 0.08 mg/kg
Assign half-life to each entry below.
Give your result in h as a bare value.

Request: Requested read-out: half-life. Entry: CCSCc1nc2c(N)nc3ccccc3c2n1CC(C)(C)O
Response: 8.46

Request: Requested field: half-life. Item: CCS(=O)(=O)Cc1nc2c(N)nc3ccccc3c2n1CC(C)(C)O
Response: 6.46

Request: Can you look up the measured half-life of CC(C)(O)Cn1c(COC2CC2)nc2c(N)nc3ccccc3c21 for me?
Response: 7.53
